B1: glmS ribozyme (parent)
chain: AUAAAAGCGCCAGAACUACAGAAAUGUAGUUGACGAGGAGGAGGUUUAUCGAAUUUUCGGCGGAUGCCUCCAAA

- Variants of: B1
- experimental_details: self-cleavage kobs at 2500 uM GlcN6P; higher = faster cleavage; RNA array
- test_context: with glucosamine-6-phosphate
This sample holds only a part of the variants without activity.
self-cleavage kobs at 2500 uM GlcN6P values, listed per item
The figure you give is taken to be in s⁻¹; do not add the unit.

Worked cases, self-cleavage kobs at 2500 uM GlcN6P given:
seq	endpoint_name	readout_value
AUAAAAGCGCCACAACUACAGAAAUGUACUUGACGAGUAGGAGGUUUAUCGAAUUUUCGGCGGAUGGCUCCAAA [G13C G29C G38U C67G]	self-cleavage kobs at 2500 uM GlcN6P	0.000596
AUAAAUGCGCCAGGACUACAGAAAUGUAGUUGACGAGGAGGAGGUUUAUCGAAUUUUCGGCGGAUGCCUCCAAA [A6U A14G]	self-cleavage kobs at 2500 uM GlcN6P	0.000414
AUAAAAGCGCCAGAACUACAGAAAUGUAGUUGACGAGGAGGAGGUUUAUCGAAGUUUCGGCGGAUACCUCCAAA [U54G G66A]	self-cleavage kobs at 2500 uM GlcN6P	0.00659
AUAAAAGCGCCAGAACUACAGAAAUGUAGUUGACGAGGAGGAGGUUUAUCGAAUUUUCGGCGGAUCCUUCCAAA [G66C C68U]	self-cleavage kobs at 2500 uM GlcN6P	0.000132

Let me know recorded self-cleavage kobs at 2500 uM GlcN6P for AUAAAAGCGCCAGAACUACAGAAAUGUAGUGGACGAUGAGGAGGUUUAUCGAAUUUUCGGCGGAUGCCGCCAAA [U31G G37U U69G] , thanks.
9.82e-05

Let me know recorded self-cleavage kobs at 2500 uM GlcN6P for AUAAAAGCGCCAGAACUACAGAAAUGUACUUGACGAGGAGGAGCUUUAUCGAAUUUUCGGCGGAUGGCUCCAAA [G29C G44C C67G] , thanks.
0.000256

Let me know recorded self-cleavage kobs at 2500 uM GlcN6P for AUAAAAGCGCCCGAACUACAGAAAUGUAGUUGACGAGGAGGAGGUUUAUCGAAUUUUCGGCGGCUGCCUCCAAA [A12C A64C] , thanks.
8.34e-05

Let me know recorded self-cleavage kobs at 2500 uM GlcN6P for AUAAAAGCGCCAGAACUACAGAAAUGUAGUUGACGAGGAGGAGGUAUAUCGAAUAUUCGGCGGAUGCCUCCAAA [U46A U55A] , thanks.
0.00221

Let me know recorded self-cleavage kobs at 2500 uM GlcN6P for AUAAAAGAGCCAGAACUACAGAAAUGUAGUUGACGAGGAGGAGGUUUAUGGAAUUUUCGGCGGAUGCCGCCAAA [C8A C50G U69G] , thanks.
0.000345
